FYI, the data here is from ChEMBL document CHEMBL4334460.

Tested on: UO-31
Experiment: Antiproliferative activity against human UO31 cells assessed as growth inhibition after 48 hrs by sulforhodamine B assay
Type: functional
Conditions: UO-31, 48 h
# key: entry, value: GI50
Answer shape: numeric part, then the unit.

Observe how each entry below is paired with its result.
{"smiles str": "COC(=O)[C@]12CC[C@@H](C)[C@H](C)[C@H]1C1=CC[C@@H]3[C@@]4(C)CC(=O)[C@H](O)[C@@]5(C)COC(=C45)C[C@@]3(C)[C@]1(C)CC2", "GI50": "18.2 µM"}
{"smiles str": "COC(=O)[C@]12CC[C@@H](C)[C@H](C)[C@H]1C1=CC[C@@H]3[C@@](C)(CC#N)C4=C(C[C@@]3(C)[C@]1(C)CC2)OC[C@]4(C)C=O", "GI50": "4.9 µM"}

Continue with the compound presented below.
Please look up its GI50: COC(=O)[C@]12CC[C@@H](C)[C@H](C)[C@H]1C1=CC[C@@H]3[C@@]4(C)C[C@@H](OC(=O)/C=C/c5ccccc5)[C@H](O)[C@@](C)(CO)[C@@H]4[C@H](O)C[C@@]3(C)[C@]1(C)CC2 2.4 µM

---

System: HCT-15
Assay: Antiproliferative activity against human HCT15 cells assessed as growth inhibition after 48 hrs by sulforhodamine B assay
Type: functional
Settings: HCT-15, 48 h
measurement kind: GI50 (µM)
I only need the number, in µM, no unit after it.

{"smiles str": "COC(=O)[C@]12CC[C@@H](C)[C@H](C)[C@H]1C1=CC[C@@H]3[C@@]4(C)CC(=O)[C@H](OC(=O)c5ccco5)[C@@]5(C)COC(=C45)C[C@@]3(C)[C@]1(C)CC2", "GI50, µM": 0.5}
{"smiles str": "COC(=O)[C@]12CC[C@@H](C)[C@H](C)[C@H]1C1=CC[C@@H]3[C@@](C)(CC#N)C4=C(C[C@@]3(C)[C@]1(C)CC2)OC[C@]4(C)C=O", "GI50, µM": 4.9}
{"smiles str": "COC(=O)[C@]12CC[C@@H](C)[C@H](C)[C@H]1C1=CC[C@@H]3[C@@]4(C)C[C@@H](O)[C@H](O)[C@@](C)(CO)[C@@H]4[C@H](O)C[C@@]3(C)[C@]1(C)CC2", "GI50, µM": 12.9}
{"smiles str": "COC(=O)[C@]12CC[C@@H](C)[C@H](C)[C@H]1C1=CC[C@@H]3[C@@]4(C)CC(=O)[C@H](O)[C@@](C)(CO)[C@@H]4C(=O)C[C@@]3(C)[C@]1(C)CC2", "GI50, µM": 10}

Continue with the compound presented below.
Please look up its GI50: COC(=O)[C@]12CC[C@@H](C)[C@H](C)[C@H]1C1=CC[C@@H]3[C@@]4(C)C=C(O)C(=O)[C@@]5(C)COC(=C54)C[C@@]3(C)[C@]1(C)CC2 8.9

---

System: HCT-15
Experiment: Antiproliferative activity against human HCT15 cells assessed as growth inhibition after 48 hrs by sulforhodamine B assay
Type: functional
Settings: HCT-15, 48 h
# key: entry, value: GI50
I only need the number, in µM, no unit after it.

Observe how each entry below is paired with its result.
{"smiles str": "COC(=O)[C@]12CC[C@@H](C)[C@H](C)[C@H]1C1=CC[C@@H]3[C@@]4(C)C[C@@H](O)[C@H](O)[C@@](C)(CO)C4=CC[C@@]3(C)[C@]1(C)CC2", "units text": "µM", "readout number": 17}
{"smiles str": "COC(=O)[C@]12CC[C@@H](C)[C@H](C)[C@H]1C1=CC[C@@H]3[C@@]4(C)C=C(O)C(=O)C(C)=C4CC[C@@]3(C)[C@]1(C)CC2", "units text": "µM", "readout number": 12}

Continue with the compound presented below.
Please look up its GI50: COC(=O)[C@]12CC[C@@H](C)[C@H](C)[C@H]1C1=CC[C@@H]3[C@@]4(C)CC(=O)[C@H](O)[C@@]5(C)COC(=C45)C[C@@]3(C)[C@]1(C)CC2 18.2
